Kindly state protein stability index for each of the entries shown.
B1: SPATS1 (parent)
chain: YPEQSKGFHKAGSMLPPVNFSIVP

- Variants of: B1
- protocol: protein stability index of a GFP-peptide fusion (GPS, HEK-293T) (PSI 1-6); higher = more stable;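 also: lentivirally expressed fusions sorted by FACS into six bins by GFP to DsRed ratio, PSI derived from sequencing read proportions per bin multiplied by bin number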
- runConditions: c terminus: a fixed tail appended
One number for each entry.

Reference set, count: 5
>>> recordedmeasurement("I22M")
2.04
>>> recordedmeasurement("G12T")
2.04
>>> recordedmeasurement("V18S")
1.96
>>> recordedmeasurement("G12E")
1.95
>>> recordedmeasurement("S13F")
1.97

Kindly note the recorded protein stability index for P2H , which is 2.04
